Hello, the source for this data is patent US20160297884A1, in case you need it.

Provide the recorded Kd for the entries that follow.
target: T1, Cynomolgus monkey BCMA (cynomolgus monkey); experiment: SPR, IgG immobilised, cyno BCMA analyte
T1 construct: Soluble analyte in SPR; also called cyBCMA; Cyno BCMA
# output: bare number, implied unit nM

The binder A02_Rd4_6nM_C01 (antibody, V domains shown, IgG) VH: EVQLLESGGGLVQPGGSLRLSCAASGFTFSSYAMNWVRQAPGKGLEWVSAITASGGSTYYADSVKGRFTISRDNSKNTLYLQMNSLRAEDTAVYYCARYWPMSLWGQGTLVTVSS VL: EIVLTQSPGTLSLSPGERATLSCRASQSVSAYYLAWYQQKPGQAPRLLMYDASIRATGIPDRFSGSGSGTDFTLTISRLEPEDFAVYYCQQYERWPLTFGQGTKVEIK showed Kd equal to 0.401

The binder COMBO_Rd4_0.6nM_C23 (antibody, V domains shown, IgG) VH: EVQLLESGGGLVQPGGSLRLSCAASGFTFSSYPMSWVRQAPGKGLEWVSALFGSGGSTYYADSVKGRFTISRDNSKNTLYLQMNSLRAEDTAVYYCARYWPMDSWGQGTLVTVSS VL: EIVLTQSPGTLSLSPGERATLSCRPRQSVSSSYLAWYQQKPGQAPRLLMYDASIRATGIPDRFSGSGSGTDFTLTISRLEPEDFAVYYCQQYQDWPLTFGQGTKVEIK showed Kd equal to 0.189
